# target-desc: human CSNK1A1 (Homo sapiens (Human))
# Sequence (P48729 whole entry): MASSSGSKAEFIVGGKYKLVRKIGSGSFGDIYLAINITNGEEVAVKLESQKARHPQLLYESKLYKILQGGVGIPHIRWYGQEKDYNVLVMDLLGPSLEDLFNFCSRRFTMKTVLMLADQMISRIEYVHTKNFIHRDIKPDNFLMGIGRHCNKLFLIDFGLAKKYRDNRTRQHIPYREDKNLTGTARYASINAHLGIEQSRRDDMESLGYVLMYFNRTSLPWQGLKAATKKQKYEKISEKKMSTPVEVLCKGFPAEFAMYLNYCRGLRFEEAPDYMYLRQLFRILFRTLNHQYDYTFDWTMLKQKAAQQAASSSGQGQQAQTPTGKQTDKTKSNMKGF
Labelling field: enter YES if recorded IC50 is less than 4 nM. Enter NO if it equals or exceeds that cut-off.

Consider the following illustrative entries.
{"compound": "CN1CC(CC(F)(F)F)c2[nH]c(-c3ccnc(NC(=O)Cc4ccc(F)cc4)c3)c(Nc3ccccc3)c2C1=O (single isomer, unassigned) [Example 16]", "target-desc": "human CSNK1A1 (Homo sapiens (Human))", "assigned-class": "NO"}
{"compound": "Cn1cc(CC(F)F)c2[nH]c(-c3ccnc(NC(=O)Cc4ccc(F)cc4)c3)c(Nc3ccccc3)c2c1=O", "target-desc": "human CSNK1A1 (Homo sapiens (Human))", "assigned-class": "NO"}
{"compound": "O=C1N[C@@H]2CCC[C@@H]2c2[nH]c(-c3ccnc(NC(=O)C(CC(F)F)c4ccc(F)cc4)c3)c(Nc3ccccc3)c21 (single isomer, unassigned; (+)) [Example 22]", "target-desc": "human CSNK1A1 (Homo sapiens (Human))", "assigned-class": "NO"}
{"compound": "Cn1ccc2[nH]c(-c3ccnc(NC(=O)C(CC(F)F)c4ccc(F)cc4)c3)c(Nc3ccccc3)c2c1=O (single isomer, unassigned) [Example 30]", "target-desc": "human CSNK1A1 (Homo sapiens (Human))", "assigned-class": "YES"}

Field: next compound
Is IC50 of CN1CC(CC(F)(F)F)c2[nH]c(-c3ccnc(NC(=O)C(CC(F)F)c4ccc(F)cc4)c3)c(Nc3ccccc3)c2C1=O (stereo not drawn) strictly below 4 nM? NO
